Taken from the supplement of paper PMC11502859.

The entries below are paired with their reported median enrichment.
test system: HEK293T; test: median enrichment of reporter reads in eGFP-reduced (low/intermediate) vs eGFP-high sorted cells (eGFP-extension fusion abundance) (ratio); higher = stronger loss of eGFP-fusion protein abundance (more destabilising extension);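 note: lentiviral eGFP-IRES-mCherry reporter pool sorted by FACS 96 h post-transduction, gated on mCherry-high cells, Illumina read counts normalized per million, median across four biological replicates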
API doc: respond with a numeric literal and nothing else, no unit.

Known median enrichment results, listed for orientation:
LNLNGHYKLSNST [ARMC4] : 1.8
SWTVPICREA [RWDD1] : 6.01
DDDDDDD [Asp07] : 0.338
HHHHHHHHH [His09] : 0.435
YDLIQHRNDSH [IFNA6] : 0.697
WCPGVCCLAHMSLL [CLSTN2] : 5.25
KFVISFICIYVVN [HEATR5B] : 13.7

Request body: readout median enrichment, system HEK293T, query YHPGL [GORASP1] . Return the value. 0.424
